- Tested on: SRPK3;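 also: KINOMEscan scanMAX binding as percent activity remaining versus control; lower means stronger binding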
- ASSAY CONTEXT: Compound Concentration (nM):1000
Entries and their measured Percent Control follow.
The reply should be a number in %, with the unit left off.

{"columns": ["COMPOUND", "Percent Control / %"],
 "data": [
  ["CC1=C(C(=O)Nc2ccc3[nH]ncc3c2)C(c2ccc(Cl)c(Cl)c2)CC(=O)N1 (centres unmarked) [GSK299115A]", 90]
]}

Sample `NS(=O)(=O)c1ccc(N/N=C2\C(=O)Nc3ccc(-c4cnco4)cc32)cc1` — what was its Percent Control? 76

Sample COc1cc2ncn(-c3cc(O[C@H](C)c4ccccc4Cl)c(C(N)=O)s3)c2cc1OC [GSK237701A] — what was its Percent Control? 100

Sample CN(C)c1cc2c(Nc3ccc4c(cnn4Cc4ccccc4)c3)ncnc2cn1 [GW282974X] — what was its Percent Control? 97

Sample COc1cc(C=NNc2ncnc3c2cnn3-c2ccccc2)ccc1O [GW513184X] — what was its Percent Control? 100

Sample Cl.O=S1CCN(Cc2ccc(-c3ccc4ncnc(Nc5ccc(OCc6ccccc6)c(F)c5)c4c3)o2)CC1 [GW576924A] — what was its Percent Control? 78

Sample Cl.c1ccc(Cc2nc3ccc(Nc4ncnc5ccccc45)cc3[nH]2)cc1 [GR269666A] — what was its Percent Control? 78
